Can you tell me Selectivity MMP-9/13 for the items I'm about to list?
molecular target: MMP-13 (Homo sapiens, UniProt P45452); construct: Catalytic domains of MMP-2, -8, -9, and -13 were obtained from Enzo Life Sciences; purchased Enzo Life Sciences; test: fluorometric MMP inhibition assay, MMP-13 catalytic domain; assay type: biochemical; conditions: ratio of IC50 values of Table 2
I only need the number, thanks.

Q) Give the observed Selectivity MMP-9/13 of O=P(O)(O)C(CNc1nc2ccc(Cl)cc2s1)P(=O)(O)O for MMP-13 (Homo sapiens, UniProt P45452).
A) 44.63

Q) Write down measured Selectivity MMP-9/13 (MMP-13 (Homo sapiens, UniProt P45452)) for this molecule. O=[N+]([O-])c1ccc2nc(NC(P(=O)(O)O)P(=O)(O)O)sc2c1
A) 3.42

Q) // fetch Selectivity MMP-9/13 for O=C(Nc1ccccc1)Nc1ccc2nc(NC(P(=O)(O)O)P(=O)(O)O)sc2c1 ; system: MMP-13 (Homo sapiens, UniProt P45452)
A) 1.18

Q) Find Selectivity MMP-9/13 for O=C(Nc1ccc2nc(NC(P(=O)(O)O)P(=O)(O)O)sc2c1)c1ccc([N+](=O)[O-])cc1 on MMP-13 (Homo sapiens, UniProt P45452) and write it down.
A) 10.80

Q) Quote Selectivity MMP-9/13 with test system MMP-13 (Homo sapiens, UniProt P45452) for O=C(Nc1ccc2nc(NC(P(=O)(O)O)P(=O)(O)O)sc2c1)c1ccccc1
A) 9.40

Q) Give measured Selectivity MMP-9/13 for O=P(O)(O)C(Nc1nc2ccc(F)cc2s1)P(=O)(O)O (MMP-13 (Homo sapiens, UniProt P45452)).
A) 6.24

###

target: MMP-13 (Homo sapiens); construct: Catalytic domains of MMP-2, -8, -9, and -13 were obtained from Enzo Life Sciences; purchased Enzo Life Sciences; test: fluorometric MMP inhibition assay, MMP-13 catalytic domain; assay type: biochemical; settings: ratio of IC50 values of Table 2
Classify on Selectivity MMP-8/13 using low (below 1), moderate (1 to below 10), high (10 or more)

Q) Assign a bin to O=P(O)(O)C(Nc1nc2ccc(Cl)cc2s1)P(=O)(O)O [Compound 3]
A) high

Q) Quick check: band for O=[N+]([O-])c1ccc2nc(NC(P(=O)(O)O)P(=O)(O)O)sc2c1 [Compound 4]
A) moderate

Q) Just checking, what class would you give O=C1c2ccccc2C(=O)N1c1ccc2nc(NC(P(=O)(O)O)P(=O)(O)O)sc2c1 [Compound 10] here?
A) moderate

Q) Please let me know in which category the item O=C(Nc1ccccc1)Nc1ccc2nc(NC(P(=O)(O)O)P(=O)(O)O)sc2c1 [Compound 9] belongs.
A) moderate

Q) Band for O=C(Nc1ccc2nc(NC(P(=O)(O)O)P(=O)(O)O)sc2c1)c1ccc(Br)cc1 [Compound 6] ?
A) moderate

Q) Lab log: O=P(O)(O)C(CNc1nc2ccc(Cl)cc2s1)P(=O)(O)O [Compound 12] — assign Selectivity MMP-8/13 category
A) high

Q) Could you place O=C(Cc1ccccc1)Nc1ccc2nc(NC(P(=O)(O)O)P(=O)(O)O)sc2c1 [Compound 8] in its proper category? Many thanks.
A) moderate

Q) Exercise: read the entry O=C(Nc1ccc2nc(NC(P(=O)(O)O)P(=O)(O)O)sc2c1)c1ccccc1 [Compound 5] and state which class it falls under.
A) high

Q) Returns: class label. Input: CC(N)C(=O)Nc1ccc2nc(NC(P(=O)(O)O)P(=O)(O)O)sc2c1 (stereo not shown) [Compound 11]
A) low

Q) Consider O=P(O)(O)C(NS(=O)(=O)c1ccc(-c2ccccc2)cc1)P(=O)(O)O [ML115, reference compound] . To which Selectivity MMP-8/13 class does it belong?
A) low

Q) Please report the category associated with O=P(O)(O)C(Nc1nc2ccc(F)cc2s1)P(=O)(O)O [Compound 2] , nothing else.
A) moderate

Q) Where would O=P(O)(O)C(Nc1nc2ccccc2s1)P(=O)(O)O [Compound 1] land among the classes by reported Selectivity MMP-8/13?
A) high

Q) Hey, which category is O=C(Nc1ccc2nc(NC(P(=O)(O)O)P(=O)(O)O)sc2c1)c1ccc([N+](=O)[O-])cc1 [Compound 7] in, do you know?
A) high
